target: T1, human PD-L1 over-expressed on CHOK1 cells (human, UniProt Q9NZQ7 19-290); test: flow cytometry (MFI) on PDL1-CHOK1 cells; upper right panel
T1 construct: whole, on cells; also called PDL1-CHOK1 cells
T1 sequence (Q9NZQ7 19-290): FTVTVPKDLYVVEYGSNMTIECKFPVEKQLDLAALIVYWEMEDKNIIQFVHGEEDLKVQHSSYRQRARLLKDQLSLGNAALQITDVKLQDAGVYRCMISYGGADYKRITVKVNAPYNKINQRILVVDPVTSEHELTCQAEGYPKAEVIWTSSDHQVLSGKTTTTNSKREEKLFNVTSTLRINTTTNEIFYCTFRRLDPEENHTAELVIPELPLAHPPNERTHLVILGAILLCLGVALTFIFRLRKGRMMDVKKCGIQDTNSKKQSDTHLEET
MEASURED_PROPERTY: pEC50
Formally, pEC50 is defined as -log10 of the concentration c, with c in mol/L.

>>> assay_value("Hu67F3G7-7 (antibody, V domains shown, humanized) VH: EVQLVQSGAEVKKPGASVKVSCKASGYTFTDFWVSWVRQAPGQGLEWMGEIYPNSGVSRYNEKFKGRVTMTVDKSISTAYMELSRLRSDDTAVYYCTKYFGYTYWFGYWGQGTLVTVSS VL: DTVLTQSPSSLSASVGDRVTITCRASKSVSTYMHWYQQKPGKAPKLLIYSASHLESGVPSRFSGSGSGTDFTLTISSLQPEDFATYYCQQSNELPVTFGGGTKVEIK")
9.96

Sample Hu67F3G7-2 (antibody, V domains shown, humanized) VH: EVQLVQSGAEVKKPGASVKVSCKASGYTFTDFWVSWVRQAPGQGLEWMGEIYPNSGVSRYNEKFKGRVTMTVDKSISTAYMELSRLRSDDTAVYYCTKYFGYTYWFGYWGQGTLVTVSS VL: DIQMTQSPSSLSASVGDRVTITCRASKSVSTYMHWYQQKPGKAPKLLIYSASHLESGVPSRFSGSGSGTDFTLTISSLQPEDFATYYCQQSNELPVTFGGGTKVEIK ; pEC50 observed: 9.97

In plain terms, Hu67F3G7-5 (antibody, V domains shown, humanized) VH: EVQLVQSGAEVKKPGASVKVSCKASGYIFTDFWVSWVRQAPGKGLEWIGEIYPNSGVSRYNEKFKGRVTMTVDKSISTAYMELSRLRSDDTAVYYCTKYFGYTYWFGYWGQGTLVTVSS VL: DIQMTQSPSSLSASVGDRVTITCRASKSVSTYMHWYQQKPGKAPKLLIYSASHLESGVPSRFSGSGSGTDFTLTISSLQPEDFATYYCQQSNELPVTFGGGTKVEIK has a documented pEC50 of 9.94
